assay: HSP distance Ra and relative energy difference RED of solvents versus plant wax HSP values; settings: RED=Ra 1/Ro, Ro=7.1
property-measured: RED 1

Worked examples, 3 molecules total:
• C1CCCCC1 = 0.23
• CC1=CC=C(C(C)C)CC1 = 0.67
• CCCCCCCC/C=C\CCCCCCCC(=O)OC [Methyl Oleate] = 0.83

1: CCCCOC(=O)c1ccccc1 [butyl benzoate]
2: CCCCCCCCCCCC(=O)OC [methyl dodecanoate]
IN: Compare reported RED 1 values for 1 and 2 . Which is lower? Returns: label corresponding to the selected item.
OUT: 2

a: CCCCCCCC(=O)OC [methyl octanoate]
b: O=C1OCCO1 [Ethylene Carbonate]
IN: Pick the one with the larger RED 1: a vs b Returns: label corresponding to the selected item.
OUT: b
(b: 3.19, a: 0.91)

I: C=C(C)[C@H]1CC=C(C)CC1
II: CCCCCCC
IN: Compare reported RED 1 values for I and II . Which is lower? Returns: label corresponding to the selected item.
OUT: II
(II: 0.19, I: 0.74)

a: CCCCOCCO
b: CC(=O)OCCC(C)C [Iso-Pentyl Acetate]
IN: Pick the one with the larger RED 1: a vs b Returns: label corresponding to the selected item.
OUT: a
